Please respond with reported IC100 for every item in the list.
# Test system: HCT-116
# Measurement Protocol: Cytotoxicity against human HCT116 cells after 72 hrs
# Format: functional
Answers without a unit are incomplete; give the number and then its unit.

Q: For CC(=O)O[C@@H]1[C@H](C)CC(O)=C2C(=O)c3c(ccc(-c4ccc5c(c4O)C(=O)C4=C(O)C[C@@H](C)[C@@H](OC(C)=O)[C@@]4(CO)O5)c3O)O[C@@]21CO [DICERANDROL A] , write its IC100.
A: 7 µg/mL

Q: For CC(=O)OC[C@]12Oc3ccc(-c4ccc5c(c4O)C(=O)C4=C(O)C[C@@H](C)[C@@H](OC(C)=O)[C@@]4(COC(C)=O)O5)c(O)c3C(=O)C1=C(O)C[C@@H](C)[C@H]2OC(C)=O [DICERANDROL C] , write its IC100.
A: 7 µg/mL

Q: For COc1cc([C@@H]2c3cc4c(cc3[C@@H](O[C@@H]3O[C@@H]5CO[C@@H](C)O[C@H]5[C@H](O)[C@H]3O)[C@H]3COC(=O)[C@H]23)OCO4)cc(OC)c1O [ETOPOSIDE] , write its IC100.
A: 125 µg/mL

Q: For CC(=O)OC[C@]12Oc3ccc(-c4ccc5c(c4O)C(=O)C4=C(O)C[C@@H](C)[C@@H](OC(C)=O)[C@@]4(CO)O5)c(O)c3C(=O)C1=C(O)C[C@@H](C)[C@H]2OC(C)=O [DICERANDROL B] , write its IC100.
A: 1.8 µg/mL
